Sourced from ChEMBL document CHEMBL2321820

# assay_notes: Oral bioavailability in Beagle dog at 5 mg/kg
# measurement_context: in vivo
readout: bioavailability (%)
Express your answer in %, writing the number without its unit.

Per the record, C[C@@H]1CN(c2ccc(F)cc2C(F)(F)F)CCN1S(=O)(=O)c1ccc([C@@](O)(C(N)=O)C(F)(F)F)s1 has bioavailability of 54

---

# tested_target: Peroxisome proliferator-activated receptor gamma (Homo sapiens)
# Sequence (P37231 whole entry): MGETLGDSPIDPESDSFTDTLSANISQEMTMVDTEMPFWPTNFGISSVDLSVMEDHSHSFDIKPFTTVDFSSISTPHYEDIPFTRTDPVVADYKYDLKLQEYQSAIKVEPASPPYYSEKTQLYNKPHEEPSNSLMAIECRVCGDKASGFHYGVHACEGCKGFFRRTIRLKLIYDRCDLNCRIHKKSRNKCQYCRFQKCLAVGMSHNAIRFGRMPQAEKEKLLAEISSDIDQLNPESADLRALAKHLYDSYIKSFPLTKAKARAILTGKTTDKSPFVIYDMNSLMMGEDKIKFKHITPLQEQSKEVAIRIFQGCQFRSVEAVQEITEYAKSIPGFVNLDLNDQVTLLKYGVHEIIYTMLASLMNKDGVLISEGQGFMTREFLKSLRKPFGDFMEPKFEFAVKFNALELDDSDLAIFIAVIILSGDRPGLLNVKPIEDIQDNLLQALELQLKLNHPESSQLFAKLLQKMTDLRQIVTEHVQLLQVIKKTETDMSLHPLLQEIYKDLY
# assay_notes: Inhibition of PPARgamma (unknown origin)
pIC50: −log10 of the molar value.
readout: pIC50

Per the record, C[C@@H]1CN(c2ccc(F)cc2C(F)(F)F)CCN1S(=O)(=O)c1ccc([C@@](O)(C(N)=O)C(F)(F)F)s1 has pIC50 of < 4.00

---

# assay_notes: Half life in mouse liver microsomes
# Assay type: ADME, Microsome
Simple rule here: half-life less than 20 min is Criterion met, otherwise Criterion not met.

Answer whether the compound C[C@@H]1CN(c2ccc(F)cc2C(F)(F)F)CCN1S(=O)(=O)c1ccc(C(C)(O)C(F)(F)F)s1 (some centres not stated) has half-life strictly less than 20 min Criterion met

Answer whether the compound C[C@@H]1CN(c2ccc(F)cc2C(F)(F)F)CCN1S(=O)(=O)c1ccc(C(O)(c2nnc[nH]2)C(F)(F)F)s1 (some centres not stated) has half-life strictly less than 20 min Criterion not met

Answer whether the compound C[C@@H]1CN(c2ccc(F)cc2C(F)(F)F)CCN1S(=O)(=O)c1ccc([C@@](O)(C(N)=O)C(F)(F)F)cc1 has half-life strictly less than 20 min Criterion not met

Answer whether the compound C[C@@H]1CN(c2ccc(C(N)=O)cc2C(F)(F)F)CCN1S(=O)(=O)c1ccc([C@@](C)(O)C(F)(F)F)s1 has half-life strictly less than 20 min Criterion met

Answer whether the compound C[C@@H]1CN(c2ccc(F)cc2C(F)(F)F)CCN1S(=O)(=O)c1cccc([C@](O)(C(N)=O)C(F)(F)F)c1 has half-life strictly less than 20 min Criterion met

Answer whether the compound C[C@@H]1CN(c2ccc(F)cc2C(F)(F)F)CCN1S(=O)(=O)c1ncc([C@](O)(C(N)=O)C(F)(F)F)s1 has half-life strictly less than 20 min Criterion not met

Answer whether the compound C[C@@H]1CN(c2ccc(F)cc2C(F)(F)F)CCN1S(=O)(=O)c1ccc([C@@](C)(O)C(F)(F)F)s1 has half-life strictly less than 20 min Criterion met

Answer whether the compound C[C@@H]1CN(c2ccc(F)cc2C(F)(F)F)CCN1S(=O)(=O)c1ccc([C@](O)(C(N)=O)C(F)(F)F)s1 has half-life strictly less than 20 min Criterion met

Answer whether the compound C[C@@H]1CN(c2ccc(F)cc2C(F)(F)F)CCN1S(=O)(=O)c1ccc([C@@](O)(C(N)=O)C(F)(F)F)s1 has half-life strictly less than 20 min Criterion not met

Answer whether the compound C[C@@H]1CN(c2ccc(F)cc2C(F)(F)F)CCN1S(=O)(=O)c1ccc([C@](C)(O)C(F)(F)F)s1 has half-life strictly less than 20 min Criterion not met

Answer whether the compound C[C@@H]1CN(c2ccc(F)cc2C(F)(F)F)CCN1S(=O)(=O)c1ncc([C@@](O)(C(N)=O)C(F)(F)F)s1 has half-life strictly less than 20 min Criterion met

Answer whether the compound C[C@@H]1CN(c2ccc(F)cc2C(F)(F)F)CCN1S(=O)(=O)c1nc(C(C)(O)C(F)(F)F)n(C)n1 (some centres not stated) has half-life strictly less than 20 min Criterion not met

---

# assay_notes: Volume of distribution at steady state in Sprague-Dawley rat at 2 mg/kg, iv
# Format: ADME, organism-based
# Parameters: dose 2 mg/kg, route intravenous
# measurement_context: in vivo, read-out: Vdss
readout: Vd (L/kg)
Express your answer in L/kg, writing the number without its unit.

Per the record, C[C@@H]1CN(c2ccc(F)cc2C(F)(F)F)CCN1S(=O)(=O)c1ccc([C@@](O)(C(N)=O)C(F)(F)F)s1 has Vd of 3.8
